I'd appreciate it if you could supply phosphorylation enrichment values for the items below.
system: c-Src; experiment: phosphorylation enrichment, bacterial display (enrichment ratio); higher = better substrate or ligand; peptides without Tyr show the background;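 note: 11-residue human phosphosite peptides and single-mutation variants displayed on the E. coli surface, counted by deep sequencing, each peptide's frequency after selection divided by its frequency in the unselected input library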;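 note: frequency after pTyr selection over input frequency; kinase dosed for 20-30% of maximal phosphorylation in three min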

query: Name the recorded phosphorylation enrichment for RLLRGYDQSAY [HLA-C_Y137] .
result: 0.416

query: Quick one: SSPMKYQQNVS [EGFEM1P_Y160]
result: 0.397

query: Same again, this time with KPVDTYYDSTR [DYNC2H1_Y2230_M2227V]
result: 0.56

* * *

system: AncSZ; test: phosphorylation enrichment, bacterial display (enrichment ratio); higher = better substrate or ligand; peptides without Tyr show the background
// label = yes if phosphorylation enrichment is not less than 1, otherwise no

query: Hi team, for VTVLDYDKIGK [SYT1_Y365] , is the recorded phosphorylation enrichment at or above 1?
result: no

query: // next record GTQGSYLLSRK [UGT3A1_Y123_C121G]
result: no

query: Further, for LINSVYGCSRQ [TMPRSS6_Y290_T287N] ?
result: yes

query: Repeat with VEQIHYIGQNE [HMOX2_Y140_R137Q]
result: no

query: LARDMCDKEFF [MET_Y1230_Y1230C_YF] , same question.
result: yes

query: Subsequent entry: LAVVDYIRRQK [ATM_Y1915_M1916I]
result: yes

query: Input QGCGIYKDFFR [PLA2G2D_Y82_S80G_YF]
result: yes

query: What do we get for ILGRYYETGSI [PAX2_Y73] ?
result: no

query: Moving on to the next sequence: LVMFIYAIFGM [SCN1A_Y1684]
result: yes

query: // next record NLSVPYDSSLK [ABCC8_Y1353_R1352P]
result: no

query: Now the sequence YTFTSYYMHWV [IGHV1-46_Y51]
result: yes

query: Let us now turn to DPADRYLTEQF [CDKL5_Y286_C291Y_YF]
result: yes

query: For CTTNHYNFMCN [TP53_Y234_I232N_YF] then?
result: no

query: Then this sequence: RLLRGYDQYAY [HLA-B_Y137_H137Y]
result: no

query: Next sequence up: QGQHWYSSSDK [CASP10_Y9]
result: no

query: Same read-out for GSTLSYFGLAT [P2RX7_Y343_A348T] ?
result: yes

* * *

target: Hck (UniProt P08631); assay: phosphorylation enrichment, bacterial display (enrichment ratio); higher = better substrate or ligand; peptides without Tyr show the background
Sequence (P08631 whole entry, looked up): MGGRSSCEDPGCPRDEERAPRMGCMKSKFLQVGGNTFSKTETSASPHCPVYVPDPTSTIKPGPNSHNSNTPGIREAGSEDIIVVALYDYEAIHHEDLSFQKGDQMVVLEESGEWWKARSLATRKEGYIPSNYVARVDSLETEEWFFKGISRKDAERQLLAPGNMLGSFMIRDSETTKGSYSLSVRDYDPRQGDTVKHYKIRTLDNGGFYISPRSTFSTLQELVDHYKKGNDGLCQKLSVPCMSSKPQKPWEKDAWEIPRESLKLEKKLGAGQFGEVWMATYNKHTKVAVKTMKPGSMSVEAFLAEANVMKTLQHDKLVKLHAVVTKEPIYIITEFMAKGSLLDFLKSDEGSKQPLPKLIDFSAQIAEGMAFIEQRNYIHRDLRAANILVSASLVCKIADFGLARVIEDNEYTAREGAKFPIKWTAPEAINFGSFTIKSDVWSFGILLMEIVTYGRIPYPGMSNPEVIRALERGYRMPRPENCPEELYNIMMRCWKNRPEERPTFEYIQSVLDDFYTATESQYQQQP
Label met for high-side phosphorylation enrichment (at or above 0.5) and not met for low-side phosphorylation enrichment (below it).

query: For this sequence, is measured phosphorylation enrichment 0.5 or higher? WNEVGYDDIGG [VCP_Y203_L198W]
result: met

query: // query: METKGYQSLPE [NR3C2_Y6_H7Q]
result: not met

query: Same question for AQMAMYFWEMS [TRPM4_Y577_G582S] please.
result: met

query: Consider next the sequence EERKTYVNTML [TEK_Y1102_T1106M] in the same way.
result: not met

query: Same for RELGEYALAEY [ALDH1A3_Y492]
result: met

query: Consider next the sequence GNLLIYTDFGK [HGD_Y166_E168D] in the same way.
result: met

query: Proceed to TGILLYGLASR [QARS1_Y57]
result: met

query: // next record NLTLKYPIEHG [ACTA1_Y71_I66N]
result: not met

query: Please give the result for KVMANYMYKAG [MAML2_Y513] too.
result: not met

query: Follow-up entry: DSDTDYGSGYP [RNASEH2A_Y206_L202S]
result: met

query: Same thing, different sequence: QEGPEYWDLET [HLA-A_Y83_Q86L]
result: met

query: And FLAATYPTVGQ [NF1_Y2508_YF] ?
result: met

query: Again, but for HKLSSYEYDFE [BTK_Y40_Y39S]
result: met

query: Subsequent entry: WLFFRYLAIGC [ATP2A2_Y836]
result: not met

* * *

Kindly state phosphorylation enrichment for each of the entries shown.
biological target: Jak2 (UniProt O60674); test: phosphorylation enrichment, bacterial display (enrichment ratio); higher = better substrate or ligand; peptides without Tyr show the background
Sequence (O60674 whole entry, looked up): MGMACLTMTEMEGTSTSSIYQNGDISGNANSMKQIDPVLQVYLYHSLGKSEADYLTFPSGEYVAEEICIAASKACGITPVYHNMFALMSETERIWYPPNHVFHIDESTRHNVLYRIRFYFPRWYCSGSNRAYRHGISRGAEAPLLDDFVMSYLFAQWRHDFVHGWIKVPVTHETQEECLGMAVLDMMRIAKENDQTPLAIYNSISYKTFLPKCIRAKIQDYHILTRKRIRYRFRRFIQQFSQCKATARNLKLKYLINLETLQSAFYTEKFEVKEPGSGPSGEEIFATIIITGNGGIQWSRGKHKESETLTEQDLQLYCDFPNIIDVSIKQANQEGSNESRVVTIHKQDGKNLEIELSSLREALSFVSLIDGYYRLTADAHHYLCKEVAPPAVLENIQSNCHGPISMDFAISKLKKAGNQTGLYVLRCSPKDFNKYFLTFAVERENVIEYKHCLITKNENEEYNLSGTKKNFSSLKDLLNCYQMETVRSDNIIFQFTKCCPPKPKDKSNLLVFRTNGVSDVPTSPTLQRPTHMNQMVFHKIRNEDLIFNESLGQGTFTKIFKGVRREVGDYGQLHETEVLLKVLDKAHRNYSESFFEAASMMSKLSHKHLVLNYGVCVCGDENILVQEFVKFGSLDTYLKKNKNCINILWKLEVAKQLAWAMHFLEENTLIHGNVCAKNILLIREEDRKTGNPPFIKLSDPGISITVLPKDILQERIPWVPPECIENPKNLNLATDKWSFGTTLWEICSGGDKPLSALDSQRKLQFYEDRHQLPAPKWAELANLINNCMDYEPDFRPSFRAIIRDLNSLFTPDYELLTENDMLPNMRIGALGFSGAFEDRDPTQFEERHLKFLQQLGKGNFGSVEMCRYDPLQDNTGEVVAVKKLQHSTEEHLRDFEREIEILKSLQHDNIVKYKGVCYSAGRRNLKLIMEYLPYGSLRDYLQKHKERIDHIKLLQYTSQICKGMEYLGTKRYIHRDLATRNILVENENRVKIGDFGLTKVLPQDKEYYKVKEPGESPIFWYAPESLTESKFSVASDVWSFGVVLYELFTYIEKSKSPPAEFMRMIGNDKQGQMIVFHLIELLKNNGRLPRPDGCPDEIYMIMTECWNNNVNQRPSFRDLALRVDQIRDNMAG
The answer should be a number; do not append a unit.

query: For TYGNLYGSRKQ [YIPF7_Y59_A54T] , what is its reported phosphorylation enrichment?
result: 0.73

query: // next record DFLSSYSAVNQ [OAT_Y85]
result: 0.997

query: Same for QEGPEYWDLET [HLA-A_Y83_Q86L]
result: 2.02

query: // repeat for LTGIAYGLPHW [SLC22A14_Y291_S292G] and report
result: 0.924

query: What do you have for HIILLYIFLKN [STXBP1_Y411_R406H] ?
result: 1.16

query: Now give it for VAMELYVFGGV [GAN_Y471] too.
result: 1.37

query: Then HLITAYRAHGF [PDHA1_Y118] ?
result: 0.408

query: // next record LVSCTYQLATG [FGFR2_Y608_R612T]
result: 1.05

query: Repeat with TGILLYGLASR [QARS1_Y57]
result: 0.937

query: Let us now turn to GPGSGYTNIMR [PKLR_Y564_R559G]
result: 0.533

query: Now the sequence GGSTYYIDTNA [ACTL6A_Y69_P66S]
result: 0.668

query: Now try PSDSGYSYETI [MAP1B_Y1921] .
result: 0.848

query: Next entry: RELGEYALAEY [ALDH1A3_Y492]
result: 1.81

query: Would you kindly repeat that for TDKLFYIFTPG [SLC27A4_Y243_S247P_YF] ?
result: 1.65

query: Param item: FITVGYVDDTQ [HLA-B_Y51_S48T]
result: 0.877

query: Here is the next sequence: `ENAGYYFRISA`
result: 1.36

query: Again, but for CTTSHYNFMCN [TP53_Y234_I232S_YF]
result: 0.884

query: Now give it for VVSMNYRVGAL [BCHE_Y174] too.
result: 0.722

query: And what about the sequence CTTIHYNYMHN [TP53_Y234_C238H] ?
result: 0.531

query: Input WRVIGYHVVVW [ATP13A2_Y50]
result: 1.19

query: Then AKKVFYMIETR [SHH_Y253_V254M] ?
result: 1.02

query: And for GADDSYYTVRS [ZAP70_Y492_A495V] ?
result: 1.16

query: Could you do the same for GRLPEYNTRIA [CCDC151_Y542] , please?
result: 0.55

* * *

molecular target: EPHB2 (UniProt P29323); test: phosphorylation enrichment, bacterial display (enrichment ratio); higher = better substrate or ligand; peptides without Tyr show the background
Sequence (P29323 whole entry, looked up): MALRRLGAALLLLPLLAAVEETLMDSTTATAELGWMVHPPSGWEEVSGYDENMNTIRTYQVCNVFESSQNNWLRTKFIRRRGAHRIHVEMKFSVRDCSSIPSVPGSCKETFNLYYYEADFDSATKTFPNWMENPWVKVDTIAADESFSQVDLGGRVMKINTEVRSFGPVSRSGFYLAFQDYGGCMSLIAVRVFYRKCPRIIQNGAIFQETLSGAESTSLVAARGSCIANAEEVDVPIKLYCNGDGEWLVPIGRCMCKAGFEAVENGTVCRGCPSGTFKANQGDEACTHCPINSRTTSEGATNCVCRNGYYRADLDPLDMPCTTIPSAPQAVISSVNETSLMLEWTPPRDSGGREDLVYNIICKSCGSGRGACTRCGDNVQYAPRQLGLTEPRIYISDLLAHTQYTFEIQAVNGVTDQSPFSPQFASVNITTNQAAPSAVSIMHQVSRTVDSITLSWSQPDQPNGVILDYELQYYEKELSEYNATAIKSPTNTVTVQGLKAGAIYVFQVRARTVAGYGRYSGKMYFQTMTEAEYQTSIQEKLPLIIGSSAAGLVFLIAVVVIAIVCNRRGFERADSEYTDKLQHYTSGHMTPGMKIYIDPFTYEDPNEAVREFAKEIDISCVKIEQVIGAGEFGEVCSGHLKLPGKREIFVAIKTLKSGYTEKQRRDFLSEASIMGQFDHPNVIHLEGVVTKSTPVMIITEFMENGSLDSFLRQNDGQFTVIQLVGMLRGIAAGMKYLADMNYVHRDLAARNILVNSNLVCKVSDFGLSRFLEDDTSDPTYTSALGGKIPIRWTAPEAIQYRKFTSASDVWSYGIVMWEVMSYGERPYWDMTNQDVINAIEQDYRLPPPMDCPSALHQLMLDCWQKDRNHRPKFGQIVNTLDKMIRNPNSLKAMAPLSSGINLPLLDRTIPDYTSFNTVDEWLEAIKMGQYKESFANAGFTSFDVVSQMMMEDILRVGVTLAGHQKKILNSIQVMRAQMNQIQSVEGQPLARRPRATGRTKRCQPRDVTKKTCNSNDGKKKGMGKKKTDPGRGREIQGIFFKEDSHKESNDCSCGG
Please note: YES applies when phosphorylation enrichment is 0.6 or greater, and NO applies otherwise.

query: Does DRLASYLDKVP [KRT14_Y129_R134P] have a reported phosphorylation enrichment of at least 0.6?
result: NO

query: Can you handle REEKNYKLKET [BCLAF1_Y459] next?
result: YES

query: Try DISEPYEVYRI [IRF8_Y107_K108E] next.
result: YES

query: Can you check WQQQSYLDFGI [CTNNB1_Y30_S33F] next?
result: NO

query: Repeat for the following sequence: PHMQTYEVDHN [SDHB_Y61_L65H]
result: YES

query: Also HKETGYVVERP [BCLAF1_Y466_L461H] ?
result: NO

query: Note, next up: NTTIHYNYMCN [TP53_Y234_C229N]
result: YES

query: Query GCKKRYDKDKP [THAP1_Y14_N12K] next
result: NO

query: One more sequence: LLFRVYGLESL [INSR_Y94]
result: YES

query: What do we get for MFNPFYGLFEF [NEDD4L_Y680_YF] ?
result: NO

query: Proceed to YDKEYYSVHNK [MET_Y1235]
result: NO

query: # repeat for YGSSSSGGAGG [RPA2_Y14_Y14S]
result: NO

query: Follow-up entry: SAEEDYMADAK [KCNT1_Y876]
result: YES

query: Next sequence: SSTAMYSAPGR [PSMB1_Y8]
result: YES

query: # repeat for SIKDKYVTAVF [KCNH2_Y611_L615V_YF]
result: NO

query: What about GSIQQYTYKQE [PRG4_Y1271_I1272T] ?
result: NO

query: YAANYYKLLGN [ROR2_Y646_D644N] , same question.
result: NO

query: Now the same for NFATLYLKIYH [PDE6B_Y219]
result: NO

query: Would you mind doing KPPPSYESEEE [BRD4_Y599_T598S] as well?
result: YES

query: What about this sequence? TKLKDYFIFNK [CCDC42_Y149_A144T_YF]
result: NO

query: Try SHMVNYQPFRK [TEX37_Y25_D24N_YF] next.
result: NO

query: Next entry: LQTYRYHGLSM [PDHA1_Y289_H292L]
result: YES

query: Quick one: KGERGYPGTLG [COL4A1_Y348_P352L]
result: NO

query: Moving on to LYDPDFMKVIL [CYP4A22_Y104_Y104F]
result: YES
